Molecular target: EGFR L858R (Homo sapiens, UniProt P00533, L858R)
Construct: purchased SignalChem E10-122BG
Sequence (P00533 25-1210 L858R): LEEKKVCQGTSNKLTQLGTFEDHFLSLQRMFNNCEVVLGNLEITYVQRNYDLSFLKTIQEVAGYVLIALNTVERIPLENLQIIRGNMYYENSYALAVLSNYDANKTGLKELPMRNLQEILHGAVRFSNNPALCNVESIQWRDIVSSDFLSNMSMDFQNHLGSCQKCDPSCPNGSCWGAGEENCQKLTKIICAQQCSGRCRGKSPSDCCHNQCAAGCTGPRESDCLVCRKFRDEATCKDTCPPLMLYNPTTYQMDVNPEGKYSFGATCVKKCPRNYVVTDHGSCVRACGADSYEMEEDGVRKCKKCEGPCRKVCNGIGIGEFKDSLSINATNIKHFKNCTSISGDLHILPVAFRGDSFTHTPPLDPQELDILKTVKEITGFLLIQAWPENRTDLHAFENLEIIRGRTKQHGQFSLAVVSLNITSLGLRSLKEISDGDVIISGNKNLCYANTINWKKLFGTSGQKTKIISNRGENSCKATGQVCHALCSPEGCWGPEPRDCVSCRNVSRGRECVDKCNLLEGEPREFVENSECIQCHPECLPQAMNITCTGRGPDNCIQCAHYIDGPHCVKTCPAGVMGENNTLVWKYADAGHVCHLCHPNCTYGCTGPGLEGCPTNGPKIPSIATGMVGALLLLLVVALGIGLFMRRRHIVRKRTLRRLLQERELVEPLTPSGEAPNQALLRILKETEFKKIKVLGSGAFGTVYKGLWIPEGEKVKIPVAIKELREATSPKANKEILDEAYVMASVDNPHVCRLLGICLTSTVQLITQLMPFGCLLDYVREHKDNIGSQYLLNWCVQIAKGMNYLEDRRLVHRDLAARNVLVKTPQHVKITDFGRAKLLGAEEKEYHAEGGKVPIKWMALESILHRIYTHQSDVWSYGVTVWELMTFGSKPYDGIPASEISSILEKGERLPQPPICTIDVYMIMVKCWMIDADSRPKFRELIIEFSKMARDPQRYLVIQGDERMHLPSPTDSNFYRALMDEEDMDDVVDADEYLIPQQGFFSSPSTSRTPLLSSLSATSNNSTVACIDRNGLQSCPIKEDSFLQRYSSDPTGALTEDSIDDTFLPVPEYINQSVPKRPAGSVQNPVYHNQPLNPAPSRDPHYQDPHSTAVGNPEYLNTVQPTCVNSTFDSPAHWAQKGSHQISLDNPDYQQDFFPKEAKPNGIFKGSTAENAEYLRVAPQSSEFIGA
Assay: Biochemical EGFR inhibition assay (Caliper mobility shift), EGFR L858R
Conditions: biochemical Caliper mobility shift assay, EGFR L858R enzyme; read-out: Enz EGFR L858R IC50
pIC50: −log10 of the molar value.

compound | target desc | pIC50
C[C@@H](Oc1cc(N2CCN(C)CC2)cc2ncnc(Nc3ccc4ncsc4c3F)c12)C1COC1 (single isomer, unassigned) [Example 95] | EGFR L858R (Homo sapiens, UniProt P00533, L858R) | 7.30 to 8.00
C[C@@H](CN(C)C)Oc1cc(N2CCN(C)CC2)cc2ncnc(Nc3ccc4ncsc4c3)c12 (single isomer, unassigned) [Example 117] | EGFR L858R (Homo sapiens, UniProt P00533, L858R) | 7.30 to 8.00
C[C@@H](CN(C)C)Oc1cc(N2CCN(C)CC2)cc2ncnc(Nc3ccc4ncsc4c3)c12 (single isomer, unassigned) [Example 116] | EGFR L858R (Homo sapiens, UniProt P00533, L858R) | < 7.30
Cn1cc(-c2cc(OC3CC3)c3c(Nc4ccc5ncsc5c4)ncnc3c2)cn1 [Example 259] | EGFR L858R (Homo sapiens, UniProt P00533, L858R) | ≥ 8.00
C[C@H](CN(C)C)Oc1cc(N2CC3CC(C2)O3)cc2ncnc(Nc3ccc4ncsc4c3)c12 [Example 177] | EGFR L858R (Homo sapiens, UniProt P00533, L858R) | ≥ 8.00
CCN1CCC(Oc2cc(-c3cnn(C)c3)cc3ncnc(Nc4ccc5ncsc5c4)c23)C1=O (racemic) [Example 58] | EGFR L858R (Homo sapiens, UniProt P00533, L858R) | ≥ 8.00
Cn1cc(-c2cc(O[C@H]3CCOC[C@@H]3F)c3c(Nc4ccc5ncsc5c4)ncnc3c2)cn1 (single isomer, unassigned) [Example 46] | EGFR L858R (Homo sapiens, UniProt P00533, L858R) | ≥ 8.00

----------
Biological target: intracellular phosphorylation of EGFR (Tyr1068) in PC-9 cells (Homo sapiens, UniProt P00533, DEL746-750)
Sequence (P00533 with tags, fused parts or gaps DEL746-750): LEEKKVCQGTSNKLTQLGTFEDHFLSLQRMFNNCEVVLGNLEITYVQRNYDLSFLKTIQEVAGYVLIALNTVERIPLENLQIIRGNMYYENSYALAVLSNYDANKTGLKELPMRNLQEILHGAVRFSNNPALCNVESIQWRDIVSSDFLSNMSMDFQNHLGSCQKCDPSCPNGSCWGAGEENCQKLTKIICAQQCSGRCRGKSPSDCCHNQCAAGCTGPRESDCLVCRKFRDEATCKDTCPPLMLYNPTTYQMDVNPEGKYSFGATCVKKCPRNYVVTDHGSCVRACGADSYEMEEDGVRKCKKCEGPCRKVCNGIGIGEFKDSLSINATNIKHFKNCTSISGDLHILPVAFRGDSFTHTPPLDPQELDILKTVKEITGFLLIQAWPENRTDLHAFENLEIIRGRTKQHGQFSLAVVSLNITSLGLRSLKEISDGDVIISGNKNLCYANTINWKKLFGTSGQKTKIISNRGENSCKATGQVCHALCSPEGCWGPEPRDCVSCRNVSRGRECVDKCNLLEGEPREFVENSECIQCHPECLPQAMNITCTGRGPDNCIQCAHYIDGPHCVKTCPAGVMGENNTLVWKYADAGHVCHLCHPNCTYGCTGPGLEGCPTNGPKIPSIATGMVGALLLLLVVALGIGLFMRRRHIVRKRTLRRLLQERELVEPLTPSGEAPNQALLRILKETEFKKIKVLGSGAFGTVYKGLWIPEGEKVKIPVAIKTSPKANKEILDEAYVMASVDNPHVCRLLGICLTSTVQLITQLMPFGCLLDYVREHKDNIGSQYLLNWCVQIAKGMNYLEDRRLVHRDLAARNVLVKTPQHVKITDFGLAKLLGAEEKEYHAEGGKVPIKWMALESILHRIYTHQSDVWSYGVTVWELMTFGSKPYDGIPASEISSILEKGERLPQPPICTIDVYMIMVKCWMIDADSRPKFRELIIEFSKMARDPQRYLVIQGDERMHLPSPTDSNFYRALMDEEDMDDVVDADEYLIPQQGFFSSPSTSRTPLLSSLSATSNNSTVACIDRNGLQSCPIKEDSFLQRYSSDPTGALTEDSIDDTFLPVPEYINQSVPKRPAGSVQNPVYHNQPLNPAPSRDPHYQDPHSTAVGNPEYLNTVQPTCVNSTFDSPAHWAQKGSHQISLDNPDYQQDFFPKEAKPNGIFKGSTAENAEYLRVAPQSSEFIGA
Test: PC-9 pEGFR AlphaLISA assay
Details: 4 hours incubation, read-out: Phos EGFR PC9 IC50
pIC50: −log10 of the molar value.
Reported values of pIC50 for individual entries

compound | pIC50
C[C@H](CO)Oc1cc(N2CCN(C)CC2)cc2ncnc(Nc3ccc4ncsc4c3)c12 (single isomer, unassigned) [Example 293] | 7.30 to 8.00
CN1CC[C@@H](Nc2cc3c(Nc4ccc5ncsc5c4)ncnc3cc2-c2cnn(C)c2)[C@H](F)C1 (single isomer, unassigned) [Example 325] | < 7.30
COc1nn(C)cc1-c1cc(O[C@H]2CCN(C)C[C@H]2F)c2c(Nc3ccc4ncsc4c3)ncnc2c1 [Example 364] | ≥ 8.00
C[C@@H](Oc1cc(-c2cnn(C)c2)cc2ncnc(Nc3ccc4ncsc4c3)c12)C1CN(C)C1 (single isomer, unassigned) [Example 385] | ≥ 8.00

----------
Reported values of pIC50 for individual entries
Molecular target: intracellular phosphorylation of EGFR (Tyr1068) in PC-9 cells (Homo sapiens, UniProt P00533, DEL746-750)
Assay: PC-9 pEGFR AlphaLISA assay
Conditions: 4 hours incubation, read-out: Phos EGFR PC9 IC50
pIC50: −log10 of the molar value.

molecule | pIC50
C[C@H](CN(C)C)Oc1cc(N2CC3CC(C2)O3)cc2ncnc(Nc3ccc4ncsc4c3)c12 | ≥ 8.00
C[C@@H](Oc1cc(-c2cnn(C)c2)cc2ncnc(Nc3ccc4ncsc4c3F)c12)C(=O)N(C)C (single isomer, unassigned) | ≥ 8.00
Cn1cc(-c2cc(O[C@H]3CC[C@@H](N(C)C)CC3)c3c(Nc4ccc5ncsc5c4)ncnc3c2)cn1 | ≥ 8.00
CN1CCC(Nc2cc3c(Nc4ccc5ncsc5c4)ncnc3cc2-c2ccn(C)n2)CC1 | ≥ 8.00
Cn1cc(-c2cc(O[C@@H]3CC[C@H]3O)c3c(Nc4ccc5ncsc5c4)ncnc3c2)cn1 (single isomer, unassigned) [Example A54] | 7.30 to 8.00
Cc1cn(-c2cc(O[C@H](C)C3COC3)c3c(Nc4ccc5ncsc5c4)ncnc3c2)c(=O)n1C | ≥ 8.00
Cn1cc(-c2cc(OC3(C)CC3)c3c(Nc4ccc5ncsc5c4)ncnc3c2)cn1 | ≥ 8.00
C[C@@H](Oc1cc(N2CCN(C)[C@@H](C)C2)cc2ncnc(Nc3ccc4ncsc4c3F)c12)C1COC1 (single isomer, unassigned) [Example 99] | 7.30 to 8.00
COc1cc2ncnc(Nc3ccc4ncsc4c3)c2cc1-c1cnn([C@@H]2CCNC[C@@H]2F)c1 (racemic) | 7.30 to 8.00
